# EXPERIMENT: chemical genetic growth profiling, strain panel (AID 1159580);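 note: tested at 20 µM; growth read once vehicle control cultures reached saturation at 30 °C; 1 = growth at the plate median or of vehicle wells; lower values mean less growth of the strain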
# APPLIED CONDITIONS: S. cerevisiae deletion strains, growth OD, locus YKL068W
Out of some 5,500 compounds screened, about 2,000 (36%) were called active. Not shown: some 18% with an inconclusive outcome. Cut-off read from the data, not from the text of the source: active = normalized growth mostly below about 0.91 (no sharp cut-off); inconclusive = no clear call, values can overlap the other calls; inactive = mostly above about 0.92. The list shows a part of the results.
Outcome codes: active, inactive

| COMPOUND | LABEL VALUE |
| --- | --- |
| CC(=O)O[C@@H]1C2CC[C@@H]3C1(C[C@@H](O)[C@@]1(O)[C@@H](C[C@H](O)C1(C)C)[C@]3(C)O)C[C@@]2(C)O (some centres undefined) | inactive |
| CC(=O)CCCCn1c(=O)c2c(ncn2C)n(C)c1=O | inactive |
| CN1CCN(C2=Nc3cc(Cl)ccc3Nc3ccccc32)CC1 | inactive |
| CNC(=O)Oc1ccccc1OC(C)C | inactive |
| O=c1c(O)c(-c2ccccc2)oc2ccccc12 | inactive |
| Cn1c(=O)[nH]c2ncn(C)c2c1=O | inactive |
| CCCc1ncc(C[n+]2ccccc2C)c(N)n1 | inactive |
| CC(C)Cn1c(=O)n(C)c(=O)c2[nH]cnc21 | inactive |
| COc1cc(Cc2cnc(N)nc2N)cc(OC)c1OC | inactive |
| CC(=O)OCC1=C(C(=O)O)N2C(=O)[C@@H](NC(=O)CSc3ccncc3)[C@H]2SC1 | inactive |
| O=C(CCc1ccc(O)cc1)c1c(O)cc(O)cc1O | inactive |
| CC(=O)Nc1c(I)cc(I)c(C(=O)O)c1I | inactive |
| NC(Cc1ccc(Cl)cc1)C(=O)O (centres undefined) | inactive |
| C/C(=C\CO)CC[C@H](C)CCC[C@H](C)CCCC(C)C | active |
| NC(=NCCCCCCN=C(N)N=C(N)Nc1ccc(Cl)cc1)N=C(N)Nc1ccc(Cl)cc1 | inactive |
| CNC(=O)N(C)c1nnc(C(C)(C)C)s1 | inactive |
| COc1cc(OC)c2c(OC)c(-c3ccc4c(c3)OCO4)c(=O)oc2c1 | inactive |
| COc1ccc(-c2c(O)c3c(OC)c4c(cc3oc2=O)OC(C)(C)C=C4)cc1 | inactive |
| CC(C)=CCC/C(C)=C/CO | inactive |
| CCC[C@@H]1C[C@@H](C(=O)N[C@H]([C@H]2O[C@H](SC)[C@H](O)[C@@H](O)[C@H]2O)[C@H](C)O)N(C)C1 | inactive |
| ClC1C(Cl)C(Cl)C(Cl)C(Cl)C1Cl (centres undefined) | active |
| O=C(c1ccccc1)c1ccc2n1CCC2C(=O)O (centres undefined) | inactive |
| O=C(O)c1cccnc1C(=O)O | inactive |
| Oc1cccc2cccnc12 | active |
| CN(C)CCC[C@@]1(c2ccc(F)cc2)OCc2cc(C#N)ccc21 | inactive |
| Cn1cnc2c1c(=O)[nH]c(=O)n2C | inactive |
| C[N+]1(C)CCCC(OC(=O)C(O)(c2ccccc2)c2ccccc2)C1 (centres undefined) | inactive |
| NS(=O)(=O)c1cc2c(cc1Cl)NCNS2(=O)=O | inactive |
| CON | inactive |

====

# EXPERIMENT: chemical genetic growth profiling, strain panel (AID 1159580);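 note: tested at 20 µM; growth read once vehicle control cultures reached saturation at 30 °C; 1 = growth at the plate median or of vehicle wells; lower values mean less growth of the strain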
# APPLIED CONDITIONS: S. cerevisiae deletion strains, growth OD, locus YDR150W, strain NUM1
Among all 5,500 compounds or so, about 2,000 (36%) were called active. About 18% were inconclusive and are not listed. Rule as the data show it: active = normalized growth mostly below about 0.91 (no sharp cut-off); inconclusive = no clear call, values can overlap the other calls; inactive = mostly above about 0.92. This is one part of the list.
Outcome codes: T for active, F for inactive

| COMPOUND | LABEL VALUE |
| --- | --- |
| Clc1cc(Cl)cc(Br)c1 | F |
| COc1cccc(C2SCc3cc(C)c(C)cc3CS2)c1O | F |
| O=C(OCCNc1ccc([N+](=O)[O-])cn1)c1ccc([N+](=O)[O-])o1 | F |
| CNC(=O)Oc1cccc2c1OC(C)(C)C2 | F |
| O=c1c(O)c(-c2ccccc2)oc2cc(O)ccc12 | T |
| COc1cc([C@@H]2c3cc4c(cc3[C@H](O)[C@H]3COC(=O)[C@H]23)OCO4)cc(OC)c1OC | F |
| O=C1c2cccc(O)c2C(=O)c2c(O)cccc21 | T |
| Nc1c(Cl)cc(C(=O)Nc2cc(Cl)cc(Cl)c2)cc1Cl | F |
| COc1ccc(/C=C/c2cc(O)cc(O[C@@H]3O[C@H](CO)[C@@H](O)[C@H](O)[C@H]3O)c2)cc1 | F |
| CC(C)C1CCC(C(=O)N[C@@H](Cc2ccccc2)C(=O)O)CC1 (stereo not given in full) | F |
| O=c1c(O)c(-c2ccccc2)oc2ccc3occc3c12 | F |
| O=C(Nc1ccc([N+](=O)[O-])cc1Cl)c1cc(Cl)ccc1O | T |
| COc1cc(OC)c2c(OC)c(-c3ccc4c(c3)OCO4)c(=O)oc2c1 | F |
| O=C(O)c1cc(O)c2c(c1)C(=O)c1cc(O)cc(O)c1C2=O | F |
| CC1(C)CC23C(=O)CCC(O)C2(C)CCC13 (stereo not given) | F |

====

Listing of recorded normalized growth by entry.
# EXPERIMENT: chemical genetic growth profiling, strain panel (AID 1159580);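 note: tested at 20 µM; growth read once vehicle control cultures reached saturation at 30 °C; 1 = growth at the plate median or of vehicle wells; lower values mean less growth of the strain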
# APPLIED CONDITIONS: S. cerevisiae deletion strains, growth OD, locus YDR335W, strain msn5, active compounds read low
About 2,000 (36%) of roughly 5,500 compounds were called active. Another 18% or so got no clear call; they are omitted. The list shows a part of the results.

| COMPOUND | normalized growth |
| --- | --- |
| COc1ccccc1OCC(O)COC(N)=O (stereo unspecified) | 0.993 |
| O=C(O)c1cccnc1C(=O)O | 1 |
| O=C(O)[C@H]1/C(=C/CO)O[C@@H]2CC(=O)N21 | 0.976 |
| Cn1c(=O)[nH]c2ncn(C)c2c1=O | 0.978 |
| CON | 1.02 |
| CC(=O)O[C@H]1CC2CCC3C(CC[C@@]4(C)C3C[C@H]([N+]3(C)CCCCC3)[C@@H]4OC(C)=O)[C@@]2(C)C[C@@H]1N1CCCCC1 (stereo partly specified) | 1.02 |
| CC1CC(OC(=O)c2ccccc2O)CC(C)(C)C1 (stereo unspecified) | 0.992 |
| COc1ccc([C@@H](C)C(=O)c2ccc(O)cc2O)cc1 | 0.968 |
| C=C(C)C1Cc2c(ccc3c(=O)c4c(oc23)COc2cc(OC)c(OC)cc2-4)O1 (stereo unspecified) | 1 |
| CN1CCCCC1c1ccc(-c2cccnc2)nc1 (stereo unspecified) | 0.99 |
| CNC(C)[C@@H]1CC[C@@H](N)[C@@H](OC2[C@@H](N)C[C@@H](N)[C@H](OC3OC[C@](C)(O)[C@H](NC)[C@H]3O)[C@H]2O)O1 (stereo partly specified) | 0.98 |

====

# EXPERIMENT: chemical genetic growth profiling, strain panel (AID 1159580);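 note: tested at 20 µM; growth read once vehicle control cultures reached saturation at 30 °C; 1 = growth at the plate median or of vehicle wells; lower values mean less growth of the strain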
# APPLIED CONDITIONS: S. cerevisiae deletion strains, growth OD, locus YER155C, strain BEM2 (second series), active compounds read low
The campaign covered roughly 5,500 compounds. About 2,000 (36%) were called active. Another 18% or so got no clear call; they are omitted. The list shows a part of the results.

| COMPOUND | normalized growth |
| --- | --- |
| CC(C)[C@@H]1CC[C@@H](C)C[C@H]1OC(=O)c1ccccc1 | 1.02 |
| C=C[C@H]1CN2CC[C@H]1C[C@H]2[C@H](O)c1ccnc2ccccc12 | 0.977 |
| CC(=O)CCCCn1c(=O)c2c(ncn2C)n(C)c1=O | 1.02 |
| CC1CC(OC(=O)c2ccccc2O)CC(C)(C)C1 (centres undefined) | 0.982 |
| CC(=O)OCC1=C(C(=O)O)N2C(=O)[C@@H](NC(=O)CSc3ccncc3)[C@H]2SC1 | 0.992 |
| Cn1c(=O)[nH]c2nc[nH]c2c1=O | 0.992 |
| CCCN(CCC)c1c([N+](=O)[O-])cc(C(F)(F)F)cc1[N+](=O)[O-] | 1 |
| CNC(C)[C@@H]1CC[C@@H](N)[C@@H](OC2[C@@H](N)C[C@@H](N)[C@H](OC3OC[C@](C)(O)[C@H](NC)[C@H]3O)[C@H]2O)O1 (some centres undefined) | 0.997 |
| CC(=O)Oc1c(C)c(C)c2c(c1C)CCC(C)(CCCC(C)CCCC(C)CCCC(C)C)O2 (centres undefined) | 1.01 |
| O=C(O)[C@H]1/C(=C/CO)O[C@@H]2CC(=O)N21 | 0.999 |
| Cn1c(=O)c2c(ncn2C)n(C)c1=O | 1 |
| O=C(Nc1ccc([N+](=O)[O-])cc1Cl)c1cc(Cl)ccc1O | 0.985 |
| CC(NC(C)(C)C)C(=O)c1cccc(Cl)c1 (centres undefined) | 1.01 |
| CN1CCCCC1c1ccc(-c2cccnc2)nc1 (centres undefined) | 0.971 |
